Every entry's value here was drawn from paper PMC7115590.

Assay: Cytotoxicity
Assay type: cell-based
Settings: human, HepG 2.2.15 cells
REPORTED_PROPERTY: CC50 (µM)
Output spec: scalar in µM, unitless text.

So what's the measured CC50 for this one? CC(=O)[C@]1(O)CC[C@@]2(O)[C@]1(C)[C@H](OC(=O)/C=C(\C)C(C)C)C[C@@H]1[C@@]3(C)CC[C@H](O)CC3=CC[C@]12O [Compound 1, caudatin] 245
